assay: soluble fraction after stress (log2 fold change); higher = more stays soluble; pooled small domains, quantitative proteomics; conditions: stress: 75 degC;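 further: 20 min heating vs room temperature control held 20 min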
We use -0.7 as the dividing line for soluble fraction (log2): on or above the line is true (1), below is false (0).

seq_string	label_value
HMAQTEIIRVTKDIKKGDAITADKFEKVKVGAYNLPGNVVKNADELKGKFAAADLVRGDYILTSKLTDNP	true (1)
HMGSLRSALDGIPGIGEQYQKRLLAQFGSVKAMRSASVEDFEAVRGIGRAKAQALYDALHAG	true (1)
HMVVEGMQFDRGYLSQYMVTDNEKMVADLENPYILITDKKISNIQEILPLLESILQSSRPLLIIADD	true (1)
HMTGKLGKIILQPKQTVYGITKKYQISESELRRLNPQLDSHLKIGDEVILPAENIKKFGGNQPVAVS	true (1)
HMRSYTPGSAFRLSSVPVYNAETGPSIGVRSGTYYIHSLPVSNGRIRMTNLISRVGKPGQVSFWVEISR	false (0)
HMIQLTDAEFNELVTYIKKNYGINLIKKRLLIEARMYSVLAKHGFTSFTEYINLIKRDPAELNTMLNKLTT	false (0)
HMGVHSVVPDIKNKHYGEAKAILAANGLSIEISDSIYDRSVAPGTVVESWPKAGAIVKGDRAVFVTLTAF	false (0)

====

experiment: soluble fraction after stress (log2 fold change); higher = more stays soluble; pooled small domains, quantitative proteomics; details: stress: 75 degC
Attribute: soluble fraction (log2)

seq_string	soluble fraction (log2)
HMRIASANAIYDELLNKRDDAKLAELKQEDINLYALYILQNGSADERAALENTQGIDVVLKEIINLQNG	-0.305
HMPPTSADGIEKYLASGMIRGVGPVYAKKLVSAFGDKVFDIIEAAPHQLQEVEGIGRVRAASILAAWAEQ	-0.549
HMTPIELIEKTIELIENERKVQKLQQKELALKADIPFPTYKDFIYKKRASLENILKLFIALRLF	-0.384
HMDGYTVYTNWGSDTNVARSDQQIQSQIPQLSGATIVGVWTKPIATGGTSYKIRYRTNSGAFTEIDVDQ	-0.256
HMDVFTAKTASHIQELREKLGQQAVFGRSDVQNALGLKATRSSALLREMAEHGIIEPVTGYGKGRYHFRS	0.204
HMGWEPTPVLVAARDISGGTVLDQDMLRVEAIPSRLVTPSIVRSDLLASVQDAKLLLPMKQGDLLNFNMLQ	-0.0591
HMQISDDGFILKIINEVVAENPKSISDYISGKEAAVGFLVGQIMKKTRGKANPKLVNEMLITELAKLKN	0.0585
HMGYPGLGSIGSKPLGDLLFQSKLFVKTKREFAEFKMANNNIVWGRRTQYLVRNYPLSVMEVFL	-0.0522
HMNVDSLIGKKARVLEDIDNLNAKGQVSIDGMEWTARSEDGSEIKKDALVEVVAIEGVKAIVKQ	0.242
HMVDPRLRSLTPQERRILEHIAEGLTNRQIAEDMFLAEKTVKNYVTSILDKLGMDSRTQAAVYAATHPT	-0.483
HMFKINNIIVSGLSEKSNLQTSEEIKNILFENIFFIKKDVLFKILEKNNLINSFEIKKIYPDTIEVKIKKT	0.0453
HMEIIFVEHKVRPGESVWLIARKYKVKKNHILAVNNLSEKSIIRPKQILKIPTSGYDQYKKSVE	-3.79
HMTGDISRALDQLPADMRTVLILYALEKQRYEDIAQITGVSVGTVKSRLNRARQKLAAILANQREQNE	-1.49
HMVQQTEEDVIRDMYVEGKIFTIGEEVTDTYTGVTGKIIRRGTNYVTFMSEDGETYKKWLYEIELA	-0.61
HMSNIIGNTAYSAIPDKQYFRLKSETAEKVANYLTENNIPFSGRINGDKTTLTIGQKNVDDYKAAVATVTG	0.0528
HMGGTATDYYNQGRTAYDVGDYNGALMNFQEAVRLDPRYGEAYYGLGKAYEALNMQNQALDAYLSAI	-0.529
HMLESPVEAIIRQIKQLITNGKLKPGDRLPAERLLAENFGVGRGYVREAIMKLEFFGLLKTSPQSGTYVAG	-1.39
